Tested on: MHCC97L liver cancer cell strains
test_method_notes: Tetrazolium salt reduction method (MTT) on human liver cancer cell strain MHCC97L
Assay type: cell-based
particulars: Homo sapiens, MHCC97L; MTT, cells cultured 3-5 days; read-out: MHCC97L IC50
Under this convention, true denotes IC50 strictly below 7 µM and false denotes IC50 at or above 7 µM.

Consider the following illustrative entries.
>>> group_label("C=C(OC)/C(OC)=C1/Oc2cc3c(cc2OC)CCN(C)[C@H]3Cc2ccc(cc2)Oc2cc(c(S(=O)(=O)O)cc2OC)C[C@H]2C1=CCCN2C [Compound H-37]")
"false"
>>> group_label("COc1cc(N)c2cc1Oc1ccc(cc1)C[C@H]1c3cc(c(OC)cc3CCN1C)Oc1c(OC(=O)c3ccccc3)c(OC)cc3c1[C@H](C2)N(C)CC3 [Compound H-34]")
"true"
>>> group_label("COc1cc2c3cc1Oc1c(OC)c(OC)c(Br)c4c1[C@H](Cc1c([N+](=O)[O-])cc(OC)c(c1Br)Oc1ccc(cc1)C[C@@H]3N(C)CC2)N(C)CC4 [Compound H-36]")
"false"
>>> group_label("COc1cc([N+](=O)[O-])c2cc1Oc1ccc(cc1)C[C@H]1c3cc(c(OC)cc3CCN1C)Oc1c(OCc3ccccc3)c(OC)cc3c1[C@H](C2)N(C)CC3 [Compound H-32]")
"true"
>>> group_label("COc1cc(S(=O)(=O)O)c2cc1Oc1ccc(cc1)C[C@H]1c3cc(c(OC)cc3CCN1C)Oc1c(O)c(OC)cc3c1[C@H](C2)N(C)CC3 [Compound H-53]")
"true"

Q. API: query returns whether the molecule falls strictly under 7 µM in IC50. Query: COc1cc(NS(C)(=O)=O)c2cc1Oc1ccc(cc1)C[C@H]1c3cc(c(OC)cc3CCN1C)Oc1c(OC)c(OC)cc3c1[C@H](C2)N(C)CC3 [Compound H-17]
A. false
